- Tested on: Mycobacterium tuberculosis H37Rv (ATCC 27294)
- Type: cell-based
- experimental.conditions: concentration 20 μg/mL; vs drug-free control; […]
quantity.measured: Log reduction in CFU

smiles_record=CO[C@H]1/C=C/O[C@@]2(C)Oc3c(C)c(O)c4c(O)c(c(/C=N/N5CCN(C)CC5)c(O)c4c3C2=O)NC(=O)/C(C)=C\C=C\[C@H](C)[C@H](O)[C@@H](C)[C@@H](O)[C@@H](C)[C@H](OC(C)=O)[C@@H]1C value_observed=1.29

Now turn to the next compound.
Problem: Requested read-out: Log reduction in CFU. Entry: `Cc1ncc([N+](=O)[O-])n1CCO`
Solution: 0.16
